Target: inosine-guanosine kinase (Escherichia coli, UniProt P0AEW6)
Construct: made in house; host or cells: Escherichia coli
Sequence (P0AEW6 1-434): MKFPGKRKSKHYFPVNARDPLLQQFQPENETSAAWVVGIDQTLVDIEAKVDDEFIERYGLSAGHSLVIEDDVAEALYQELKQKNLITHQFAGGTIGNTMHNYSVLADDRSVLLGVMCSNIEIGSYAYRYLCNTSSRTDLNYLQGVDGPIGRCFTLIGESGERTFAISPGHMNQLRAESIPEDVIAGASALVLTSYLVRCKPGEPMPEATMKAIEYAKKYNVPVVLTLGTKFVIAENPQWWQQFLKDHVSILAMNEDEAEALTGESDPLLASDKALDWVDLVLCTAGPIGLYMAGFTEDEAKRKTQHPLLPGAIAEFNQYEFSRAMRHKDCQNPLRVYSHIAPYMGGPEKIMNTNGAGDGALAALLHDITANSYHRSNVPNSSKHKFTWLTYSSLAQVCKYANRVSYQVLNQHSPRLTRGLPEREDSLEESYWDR
Test: Activation of inosine-guanosine kinase by divalent or trivalent metal ion salts instead of MgSO4
Format: biochemical
Settings: 10 mM metal salt instead of MgSO4, 300 mM KCl
Procedure: The activity of the inosine-guanosine kinase obtained is determined as follows. […] After the reaction solution is diluted to 1/20 with 0.2M NaH2 PO4 (adjusted the pH to 2.6 with H3 PO4) to stop the reaction, an amount of 5'-IMP in the stopped reaction solution is quantitatively determined by HPLC. […] Detection of components was made by the absorbance at UV absorbance at 254 nm as an index. Quantitative determination was made by comparing absorbancy with that of the standard. […]
As shown below, each of these compounds has a reported Produced IMP value.

{"structureSmiles": "O=S(=O)([O-])[O-].[Mn+2]", "Produced IMP (mM)": 0.64}
{"structureSmiles": "[Ba+2].[Cl-].[Cl-]", "Produced IMP (mM)": 0}
{"structureSmiles": "CC(=O)[O-].CC(=O)[O-].[Zn+2]", "Produced IMP (mM)": 0}
{"structureSmiles": "[Cl-].[Cl-].[Co+2]", "Produced IMP (mM)": 0.01}
{"structureSmiles": "[Cl][Mn][Cl]", "Produced IMP (mM)": 0.51}

All figures here come from patent US5874272A.
